Values from the supplement of paper PMC13380429

# Lookup of reported inhibition of SARS-CoV-2 cytopathic effect keyed by entry
tested on: Vero E6 infected with SARS-CoV-2; assay: inhibition of SARS-CoV-2 cytopathic effect; higher = more antiviral protection, active = above 15; conditions: 100 nM; 48 h
assay.metric: inhibition of SARS-CoV-2 cytopathic effect (%)

compound=CCN(CC)S(=O)(=O)c1ccc(C(=O)O)cc1 system_under_test="Vero E6 infected with SARS-CoV-2" unit_spec=% observed_value=0.48
compound=O=C(/C=C/c1ccc(O)cc1)c1ccc(O)cc1O system_under_test="Vero E6 infected with SARS-CoV-2" unit_spec=% observed_value=1.21
compound=C[C@@H](N)Cc1c[nH]c2ccc(O)cc12 system_under_test="Vero E6 infected with SARS-CoV-2" unit_spec=% observed_value=-1.23
compound=Nc1nc(N)c2nc(-c3cccc(O)c3)cnc2n1 system_under_test="Vero E6 infected with SARS-CoV-2" unit_spec=% observed_value=0.04
compound=CN(C)CCc1c[nH]c2ccc(CS(=O)(=O)N3CCCC3)cc12 system_under_test="Vero E6 infected with SARS-CoV-2" unit_spec=% observed_value=-0.24
compound=CC(C)C[C@@H](C=O)NC(=O)[C@H](CC(C)C)NC(=O)[C@H](CC(C)C)NC(=O)OCc1ccccc1 system_under_test="Vero E6 infected with SARS-CoV-2" unit_spec=% observed_value=9.43
compound="CCOC(CN1CCN(CC(C)C(=O)c2ccccc2)CC1)c1ccccc1 (stereo not given)" system_under_test="Vero E6 infected with SARS-CoV-2" unit_spec=% observed_value=-2.2
compound="CC(C)Cc1ccc(C(C)C(=O)NO)cc1 (stereo not given)" system_under_test="Vero E6 infected with SARS-CoV-2" unit_spec=% observed_value=0.99
compound="CCCCCCNC(=O)n1cc(F)c(=O)[nH]c1=O [Carmofur]" system_under_test="Vero E6 infected with SARS-CoV-2" unit_spec=% observed_value=2.25
compound="CCOc1ccccc1OC(c1ccccc1)C1CNCCO1 (stereo not given)" system_under_test="Vero E6 infected with SARS-CoV-2" unit_spec=% observed_value=0.81
